// provenance: patent EP4389746A2

// IC50 lookup, one value per entry
Target: human P2X2/3 receptor (Homo sapiens, UniProt P56373+Q9UBL9)
Sequence (P56373 1-397): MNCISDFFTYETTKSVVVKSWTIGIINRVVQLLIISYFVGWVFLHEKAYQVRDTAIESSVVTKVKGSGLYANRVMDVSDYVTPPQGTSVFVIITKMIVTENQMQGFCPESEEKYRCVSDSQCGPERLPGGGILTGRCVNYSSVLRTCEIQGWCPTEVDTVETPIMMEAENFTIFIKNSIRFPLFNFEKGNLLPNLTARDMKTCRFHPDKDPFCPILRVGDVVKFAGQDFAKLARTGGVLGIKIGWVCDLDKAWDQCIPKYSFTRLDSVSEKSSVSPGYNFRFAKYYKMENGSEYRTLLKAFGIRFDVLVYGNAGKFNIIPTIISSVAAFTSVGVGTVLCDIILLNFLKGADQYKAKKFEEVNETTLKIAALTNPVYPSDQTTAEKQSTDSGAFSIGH
Sequence (Q9UBL9 1-471): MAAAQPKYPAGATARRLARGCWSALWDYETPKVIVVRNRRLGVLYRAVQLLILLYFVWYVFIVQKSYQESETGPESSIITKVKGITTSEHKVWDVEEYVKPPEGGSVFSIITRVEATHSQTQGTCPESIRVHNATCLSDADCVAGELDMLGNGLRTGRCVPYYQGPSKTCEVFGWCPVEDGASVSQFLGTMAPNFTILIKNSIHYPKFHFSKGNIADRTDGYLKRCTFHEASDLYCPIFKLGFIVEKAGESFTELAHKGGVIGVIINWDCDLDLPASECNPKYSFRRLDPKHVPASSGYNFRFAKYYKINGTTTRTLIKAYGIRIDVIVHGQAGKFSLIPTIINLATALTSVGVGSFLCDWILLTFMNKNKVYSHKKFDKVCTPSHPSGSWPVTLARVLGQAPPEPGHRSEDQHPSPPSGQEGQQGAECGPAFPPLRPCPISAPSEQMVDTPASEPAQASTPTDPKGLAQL
Test: Calcium fluorescence measurement: human P2X2/3 receptor activity inhibition (CHO-K1 cells, Fluo-8 NoWash, […])
Details: CHO-K1 cells expressing human P2RX2/X3 channel; 10µM α,β-Met-ATP; read-out: h-P2X2/3 IC50

COMPOUND | OUTCOME MEASURE | OBSERVED
CC(C)C1C(=O)N=C2c3ncc(N4CCC(O)CC4)cc3N(Cc3ccc(Cl)cc3)C(=O)N21 (stereo not shown) [Example 26] | IC50 | > 30 µM
CC(C)C1C(=O)N=C2c3ncc(N4CCOCC4)cc3N(Cc3ccc(Cl)cc3)C(=O)N21 (racemic) [Example 22] | IC50 | 18.8 µM
CC(C)C1C(=O)N=C2c3nnc(N4CCOCC4)cc3N(Cc3ccc(Cl)cc3)C(=O)N21 (stereo not shown) [Example 28] | IC50 | > 30 µM
COc1ccc(Cn2c(=O)n3c(C(C)(C)C)nnc3c3ncc(N4CCN(C(C)=O)CC4)cc32)cc1 [Example 36] | IC50 | > 30 µM
COC(C)(C)c1nnc2c3ncc(N4CCOCC4)cc3n(Cc3ccc(Cl)cc3)c(=O)n12 [Example 32] | IC50 | > 30 µM
CC(C)(C)Cc1nnc2c3nnc(N4CCOCC4)cc3n(Cc3ccc(Cl)cc3)c(=O)n12 [Example 49] | IC50 | > 30 µM
COC(C)(C)C1CN2C(=O)N(Cc3ccc(Cl)cc3)c3cc(N4CCOCC4)cnc3C2=N1 (stereo not shown) [Example 5] | IC50 | 19 µM
CC(C)(C)c1nnc2c3ncc(N4CCOCC4)cc3n(Cc3ccc(Cl)cc3)c(=O)n12 [Example 30] | IC50 | > 30 µM
COC(C)(C)C1CN2C(=O)N(Cc3ccc(Cl)cc3)c3cc(N4CCOCC4)nnc3C2=N1 (stereo not shown) [Example 18] | IC50 | > 30 µM
CC(=O)N1CCN(c2cnc3c(c2)n(Cc2ccc(Cl)cc2)c(=O)n2c(C(C)(C)C)nnc32)CC1 [Example 34] | IC50 | > 30 µM

Then there is this compound:
Request: I'd like to know its IC50. The compound in question is COc1ccc(Cn2c(=O)n3c(C(C)(C)C)nnc3c3ncc(N4CCOCC4)cc32)cc1 [Example 29]
Result: 19.7 µM
